Record form. Attribute: pIC50. Fill in for each entry.
# targetOrSystem: UniProtKB P30561
# protocolNotes: In vitro assay 3: antagonism in mouse cell line (AHR transactivation, firefly luciferase reporter, kynurenic acid prestimulated)
# Type: cell-based
# testConditions: mouse Hepa 1c1c7 cells, 200 μM kynurenic acid, 20 hours, read-out: AHR Antagonism Mouse IC50
When answering, recall that pIC50 equals minus log10 of the concentration in mol/L, and write that number alone.

Query string: Would you kindly share the measured pIC50 for N#Cc1cccc2c1nc(N[C@@H]1CCCCNC1=O)n1nc(-c3cnn(C4CC4)c3)nc21 [Example 761] ?
Result string: 8.00

Query string: Thanks! And NC(=O)[C@@H](CO)Nc1nc2ccccc2c2nc(-c3ccccc3OC(F)(F)F)nn12 [Example 468] ?
Result string: 7.37

Query string: Thanks! And COc1cccc2c1nc(N[C@@H]1CCCCNC1=O)n1nc(-c3cn(C)nn3)nc21 [Example 756] ?
Result string: 4.93

Query string: Thanks! And COc1ccc(-c2nc3c4ccccc4nc(NC4CNCCNC4=O)n3n2)cc1 (centres unmarked) [Example 34] ?
Result string: 7.62

Query string: Thanks! And COc1ccc(-c2nc3c4cccc(OC)c4nc(N[C@@H]4CCCCNC4=O)n3n2)cc1 [Example 205] ?
Result string: 8.12

Query string: Thanks! And O=C1NCCNC[C@H]1Nc1nc2ccccc2c2nc(-c3ccccc3OC(F)(F)F)nn12 [Example 720] ?
Result string: 7.20

Query string: Thanks! And O=C1NCCCC[C@H]1Nc1nc2ccccc2c2nc(-c3cnn(CCCO)c3)nn12 [Example 598] ?
Result string: 6.77

Query string: Thanks! And COc1ccc(-c2nc3c4cccc(Br)c4nc(N[C@@H](C(N)=O)C(C)C)n3n2)cc1 [Example 556] ?
Result string: 9.38

---

# targetOrSystem: AHR (Mus musculus)
# Sequence (P30561 whole entry P471L/N533S/M589L, form open): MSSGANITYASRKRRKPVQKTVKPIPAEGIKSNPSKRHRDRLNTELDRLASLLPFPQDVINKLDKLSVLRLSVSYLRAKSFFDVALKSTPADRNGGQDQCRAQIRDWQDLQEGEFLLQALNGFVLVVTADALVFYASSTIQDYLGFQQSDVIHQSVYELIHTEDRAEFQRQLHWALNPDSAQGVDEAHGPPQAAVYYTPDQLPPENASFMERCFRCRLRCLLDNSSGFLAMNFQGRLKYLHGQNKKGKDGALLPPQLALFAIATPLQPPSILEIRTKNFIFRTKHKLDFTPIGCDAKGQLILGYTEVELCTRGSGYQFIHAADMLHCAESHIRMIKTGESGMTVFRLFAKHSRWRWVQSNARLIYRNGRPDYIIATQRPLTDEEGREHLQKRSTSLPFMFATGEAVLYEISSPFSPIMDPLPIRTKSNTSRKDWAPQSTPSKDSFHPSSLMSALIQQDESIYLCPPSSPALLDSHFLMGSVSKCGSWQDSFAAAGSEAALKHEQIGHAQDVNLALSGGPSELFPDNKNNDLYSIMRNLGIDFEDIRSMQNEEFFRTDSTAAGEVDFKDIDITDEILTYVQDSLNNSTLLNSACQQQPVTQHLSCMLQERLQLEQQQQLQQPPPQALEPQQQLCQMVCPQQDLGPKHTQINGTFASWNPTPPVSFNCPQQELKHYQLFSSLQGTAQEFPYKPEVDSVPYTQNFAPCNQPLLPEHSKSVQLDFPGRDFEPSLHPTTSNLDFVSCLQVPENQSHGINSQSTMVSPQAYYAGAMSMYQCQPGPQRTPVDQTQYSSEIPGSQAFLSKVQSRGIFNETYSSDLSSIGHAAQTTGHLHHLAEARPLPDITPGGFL
# protocolNotes: In vitro assay 3: antagonism in mouse cell line (AHR transactivation, firefly luciferase reporter, kynurenic acid prestimulated)
# Format: cell-based
# testConditions: mouse Hepa 1c1c7 cells, 200 μM kynurenic acid, 20 hours, read-out: AHR Antagonism Mouse IC50
Labelling: IC50 reported below 50 nM becomes label 1; at or above becomes label 0.

Query string: Please state whether IC50 is below 50 nM for `COc1ccccc1-c1nc2c3ccccc3nc(N[C@H]3CCCCNC3=O)n2n1`
Result string: label 0

Query string: Thanks! And `CSc1ccc(-c2nc3c4ccccc4nc(N[C@@H]4CCCCNC4=O)n3n2)c(F)c1` ?
Result string: label 1

Query string: Thanks! And `CC(C)n1cc(-c2nc3c4cccc(OC(F)(F)F)c4nc(N[C@@H]4CCCCNC4=O)n3n2)cn1` ?
Result string: label 1

Query string: Thanks! And `COc1ccc(-c2nc3c4cccc(C(F)(F)F)c4nc(N[C@@H]4CCCCNC4=O)n3n2)cc1` ?
Result string: label 1

Query string: Thanks! And `CC[C@@H](Nc1nc2ccccc2c2nc(-c3cccnc3C(F)(F)F)nn12)C(N)=O` ?
Result string: label 1

Query string: Thanks! And `O=C1NCCCC[C@H]1Nc1nc2c(Cl)cccc2c2nc(-c3ccc(F)cc3)nn12` ?
Result string: label 1

Query string: Thanks! And `O=C1NCCCC[C@@H]1Nc1nc2ccccc2c2nc(-c3cc(F)ccc3OC(F)(F)F)nn12` ?
Result string: label 1

Query string: Thanks! And `COc1ccc(-c2nc3c4cc(OC)ccc4nc(N[C@@H]4CCCCNC4=O)n3n2)cc1` ?
Result string: label 1

Query string: Thanks! And `N#Cc1cccc(-c2nc3c4ccccc4nc(N[C@@H]4CCNC4=O)n3n2)c1` ?
Result string: label 0

Query string: Thanks! And `O=C1NCCCC[C@H]1Nc1nc2ccccc2c2nc(-c3cnn(CC4CCC4)c3)nn12` ?
Result string: label 1

Query string: Thanks! And `CCCNC(=O)[C@@H](C)Nc1nc2c(Br)cccc2c2nc(-c3ccc(Cl)cc3OC(F)F)nn12` ?
Result string: label 1

Query string: Thanks! And `O=C1NCCCC[C@H]1Nc1nc2ccccc2c2nc(-c3ccsc3)nn12` ?
Result string: label 1

Query string: Thanks! And `CCCCNC(=O)[C@H](C)Nc1nc2c(Br)cccc2c2nc(-c3ccc(Cl)cc3OC(F)(F)F)nn12` ?
Result string: label 0

Query string: Thanks! And `Nc1cccc(-c2nc3c4ccccc4nc(N[C@@H]4CCCCNC4=O)n3n2)c1` ?
Result string: label 1

Query string: Thanks! And `CCCNC(=O)[C@@H](C)Nc1nc2c(Br)cccc2c2nc(-c3ccc(Cl)cc3OC(F)(F)F)nn12` ?
Result string: label 1

Query string: Thanks! And `CC(C)[C@@H](Nc1nc2c(Br)cccc2c2nc(-c3cnn(C)c3)nn12)C(N)=O` ?
Result string: label 1

Query string: Thanks! And `COc1cccc(-c2nc3c4ccccc4nc(N[C@H](CO)C(N)=O)n3n2)c1` ?
Result string: label 0

Query string: Thanks! And `O=C1NCCCC[C@H]1Nc1nc2ccccc2c2nc(-c3cnn(C4CC4)c3)nn12` ?
Result string: label 1

Query string: Thanks! And `CCC[C@@H](Nc1nc2ccccc2c2nc(-c3cc(C(F)(F)F)ccn3)nn12)C(=O)NC` ?
Result string: label 1

Query string: Thanks! And `CC[C@@H](Nc1nc2ccccc2c2nc(-c3cccc(OC)c3)nn12)C(=O)O` ?
Result string: label 0

Query string: Thanks! And `Cc1noc(-c2nc3c4ccccc4nc(N[C@@H]4CCCCNC4=O)n3n2)n1` ?
Result string: label 0

Query string: Thanks! And `COc1ccc(-c2nc3c4ccccc4nc(N[C@@H]4CCCCNC4=O)n3n2)cc1F` ?
Result string: label 1

Query string: Thanks! And CCNC(=O)C(CC)Nc1nc2ccccc2c2nc(-c3ccccc3OC(F)(F)F)nn12 (single isomer, unassigned) [Example 663] ?
Result string: label 0

Query string: Thanks! And `CCCNC(=O)[C@H](CC)Nc1nc2c(Br)cccc2c2nc(-c3ccc(Cl)cc3OC(F)F)nn12` ?
Result string: label 1

Query string: Thanks! And `COc1ccc(-c2nc3c4ccccc4nc(N[C@H](CC(C)C)C(N)=O)n3n2)cc1` ?
Result string: label 1

Query string: Thanks! And `O=C1NCCCC[C@H]1Nc1nc2c(Br)cccc2c2nc(-c3ccncc3)nn12` ?
Result string: label 1

Query string: Thanks! And `COc1ccc(-c2nc3c4ccc(C(C)C)cc4nc(N[C@@H]4CCCCNC4=O)n3n2)cc1` ?
Result string: label 0

Query string: Thanks! And `CCn1cc(-c2nc3c4cccc(OC)c4nc(N[C@@H]4CCCCNC4=O)n3n2)cn1` ?
Result string: label 0

Query string: Thanks! And `CCOC(=O)[C@@H](C)Nc1nc2ccccc2c2nc(-c3ccc(OC)cc3)nn12` ?
Result string: label 0

Query string: Thanks! And `CC[C@@H](Nc1nc2ccccc2c2nc(-c3cnn(C)c3)nn12)C(N)=O` ?
Result string: label 1

Query string: Thanks! And `COc1ccc(-c2nc3c4ccccc4nc(N[C@@H]4CNCCNC4=O)n3n2)c(C)c1` ?
Result string: label 1

Query string: Thanks! And COc1cccc(-c2nc3c4ccccc4nc(NC4CNCCNC4=O)n3n2)c1 (single isomer, unassigned) [Example 116] ?
Result string: label 0

---

# targetOrSystem: AHR (Homo sapiens)
# Construct: U87 MG glioblastoma cells (ATCC #HTB-14) endogenously expressing AHR; endogenous in cells; host or cells: U87 MG glioblastoma cells (ATCC #HTB-14)
# Sequence (P35869 11-848): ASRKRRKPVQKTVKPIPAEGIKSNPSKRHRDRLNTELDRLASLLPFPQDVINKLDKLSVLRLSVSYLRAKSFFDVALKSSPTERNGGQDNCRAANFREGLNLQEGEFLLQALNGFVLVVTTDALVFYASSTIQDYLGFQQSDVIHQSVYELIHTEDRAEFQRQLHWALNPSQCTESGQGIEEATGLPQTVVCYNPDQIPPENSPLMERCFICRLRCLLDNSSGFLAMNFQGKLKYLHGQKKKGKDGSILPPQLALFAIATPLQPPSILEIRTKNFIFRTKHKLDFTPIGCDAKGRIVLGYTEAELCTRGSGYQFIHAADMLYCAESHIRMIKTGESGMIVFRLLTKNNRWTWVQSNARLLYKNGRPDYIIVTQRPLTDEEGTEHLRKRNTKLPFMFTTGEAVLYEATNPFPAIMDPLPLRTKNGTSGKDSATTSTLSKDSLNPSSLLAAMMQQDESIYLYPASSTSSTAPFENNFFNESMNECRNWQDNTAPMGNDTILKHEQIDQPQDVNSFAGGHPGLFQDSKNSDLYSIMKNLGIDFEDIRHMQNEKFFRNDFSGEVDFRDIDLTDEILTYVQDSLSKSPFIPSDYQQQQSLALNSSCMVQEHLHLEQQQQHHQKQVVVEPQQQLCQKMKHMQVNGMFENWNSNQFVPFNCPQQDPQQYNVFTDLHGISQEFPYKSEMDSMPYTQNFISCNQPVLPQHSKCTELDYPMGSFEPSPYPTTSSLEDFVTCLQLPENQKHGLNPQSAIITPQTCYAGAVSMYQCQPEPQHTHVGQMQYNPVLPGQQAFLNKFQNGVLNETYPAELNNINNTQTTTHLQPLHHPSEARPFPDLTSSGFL
# protocolNotes: In vitro assay 1: antagonism in human cell line (AHR transactivation, firefly luciferase reporter, kynurenic acid prestimulated)
# Type: cell-based
# testConditions: AHR Antagonism Human IC50 [M]
parameter: IC50 (M)
Give the value in M but do not write M after it.

Query string: Under AHR (Homo sapiens): IC50 value of `Cn1cc(-c2nc3c4cccc(C5CC5)c4nc(N[C@@H]4CCCCNC4=O)n3n2)cn1` ?
Result string: 1.77e-08

Query string: Thanks! And `CC[C@@H](Nc1nc2ccccc2c2nc(-c3cc(Br)ccc3OC(F)(F)F)nn12)C(N)=O` ?
Result string: 3.44e-07

Query string: Thanks! And CS(=N)(=O)c1cccc(-c2nc3c4ccccc4nc(N[C@@H]4CCCCNC4=O)n3n2)c1 (single isomer, unassigned) [Example 659] ?
Result string: 1.62e-06

Query string: Thanks! And `COc1ccc(-c2nc3c4ccccc4nc(N[C@@H]4CCCCNC4=O)n3n2)cc1F` ?
Result string: 9.49e-10

Query string: Thanks! And `COc1cccc(-c2nc3c4ccccc4nc(N[C@H](C)C(=O)N(C)C)n3n2)c1` ?
Result string: 1.01e-08

Query string: Thanks! And `COc1cccc(-c2nc3c4ccccc4nc(N[C@@H](CO)C(N)=O)n3n2)c1` ?
Result string: 4.95e-07

Query string: Thanks! And `CC[C@@H](Nc1nc2ccccc2c2nc(-c3ccc(C#N)cc3)nn12)C(N)=O` ?
Result string: 6.02e-10

Query string: Thanks! And `CC(C)c1cccc2c1nc(N[C@@H]1CCCCNC1=O)n1nc(-c3cccc(F)c3)nc21` ?
Result string: 1.16e-08
